biological target: HarmOR7 (Helicoverpa armigera); assay: Xenopus oocyte two-electrode voltage clamp, HarmOR7 + Orco; format: cell-based; conditions: HarmOR7; dose response in oocytes; unit M; read-out: EC50
Sequence (A0A7T3KAD7 1-411): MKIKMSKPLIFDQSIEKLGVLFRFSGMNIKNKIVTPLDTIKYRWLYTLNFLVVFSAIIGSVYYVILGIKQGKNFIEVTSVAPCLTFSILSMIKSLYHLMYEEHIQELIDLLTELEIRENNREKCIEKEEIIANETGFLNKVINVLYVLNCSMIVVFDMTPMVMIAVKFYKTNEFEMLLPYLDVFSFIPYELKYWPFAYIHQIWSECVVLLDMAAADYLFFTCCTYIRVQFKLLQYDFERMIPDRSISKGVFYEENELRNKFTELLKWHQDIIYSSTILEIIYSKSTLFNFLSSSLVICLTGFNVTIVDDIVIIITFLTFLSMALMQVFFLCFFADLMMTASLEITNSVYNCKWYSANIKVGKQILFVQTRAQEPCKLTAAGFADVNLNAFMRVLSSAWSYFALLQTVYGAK
measured metric: pEC50
Remember the convention: pEC50 equals -log10 of concentration in molar.

Give reported pEC50 value for CC(=O)OCc1ccccc1 [Benzyl acetate]
4.22

###

molecular target: HarmOR40 (Helicoverpa armigera, UniProt A0A7T3KBF4); experiment: Xenopus oocyte two-electrode voltage clamp, HarmOR40 + Orco; type: cell-based; conditions: HarmOR40; dose response in oocytes; unit M printed in text only; read-out: EC50
Sequence (A0A7T3KBF4 1-401): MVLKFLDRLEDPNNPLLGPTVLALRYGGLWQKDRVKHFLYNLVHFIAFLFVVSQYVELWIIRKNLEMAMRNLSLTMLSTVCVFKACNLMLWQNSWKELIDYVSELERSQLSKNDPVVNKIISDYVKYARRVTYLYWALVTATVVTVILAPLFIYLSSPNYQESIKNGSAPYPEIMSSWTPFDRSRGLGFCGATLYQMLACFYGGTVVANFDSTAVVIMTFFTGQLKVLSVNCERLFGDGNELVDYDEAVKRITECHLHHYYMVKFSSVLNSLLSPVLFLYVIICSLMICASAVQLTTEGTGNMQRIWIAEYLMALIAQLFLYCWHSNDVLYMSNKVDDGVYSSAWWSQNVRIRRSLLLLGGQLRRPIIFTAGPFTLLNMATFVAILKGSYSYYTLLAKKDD
Overview of recorded pEC50 for various compounds
On this scale, pEC50 is minus log10 of a concentration expressed in M (mol/L).

Please give the documented pEC50 of CC(=O)OC/C=C(\C)CCC=C(C)C [Geranyl acetate]
5.11

Supply recorded pEC50 for C=CC(C)(O)CC/C=C(\C)CCC=C(C)C (centres unmarked) [(E)-Nerolidol] here.
4.90

###

Target: HarmOR52 (Helicoverpa armigera)
Sequence (A0A7T3KAH2 entry or part of it): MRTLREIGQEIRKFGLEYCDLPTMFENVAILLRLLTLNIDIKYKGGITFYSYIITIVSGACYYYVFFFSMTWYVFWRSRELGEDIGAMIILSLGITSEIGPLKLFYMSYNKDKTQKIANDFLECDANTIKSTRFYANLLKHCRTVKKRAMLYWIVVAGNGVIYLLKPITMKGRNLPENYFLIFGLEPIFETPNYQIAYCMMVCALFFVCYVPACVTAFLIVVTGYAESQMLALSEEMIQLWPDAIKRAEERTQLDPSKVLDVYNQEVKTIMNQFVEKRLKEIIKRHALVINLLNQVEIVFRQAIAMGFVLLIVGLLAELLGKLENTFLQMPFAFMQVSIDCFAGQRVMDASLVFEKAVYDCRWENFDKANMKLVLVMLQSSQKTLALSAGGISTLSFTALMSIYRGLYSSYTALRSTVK
Experiment: Xenopus oocyte two-electrode voltage clamp, HarmOR52 + Orco
Type: cell-based
Description: In order to expand our analysis on the response properties of HarmORs, we conducted dose–response analyses for the 28 functional HarmORs. […] Six HarmORs (OR3, 22, 48, 50, 56, and 66) could not be activated by any ligand at 10^−5 M. For the other 22 HarmORs, dose–response curves were generated and EC50 values of their major ligands were calculated (fig. 2A and supplementary table S2, Supplementary Material online). […]
measured metric: EC50 (µM)
Dear colleague, please return just the value in µM, with no unit written.

CCC/C=C\CO [(Z)-2-Hexen-1-ol]    16.5
CC/C=C\CCO [(Z)-3-hexen-1-ol]    23.3
OCc1ccccc1    6.87

Now examine the next entry.
Quickly give me recorded EC50 for CCC/C=C/CO [(E)-2-Hexen-1-ol]
24

###

Biological target: HarmOR42 (Helicoverpa armigera)
Sequence (A0A7T3KAF6 entry or part of it): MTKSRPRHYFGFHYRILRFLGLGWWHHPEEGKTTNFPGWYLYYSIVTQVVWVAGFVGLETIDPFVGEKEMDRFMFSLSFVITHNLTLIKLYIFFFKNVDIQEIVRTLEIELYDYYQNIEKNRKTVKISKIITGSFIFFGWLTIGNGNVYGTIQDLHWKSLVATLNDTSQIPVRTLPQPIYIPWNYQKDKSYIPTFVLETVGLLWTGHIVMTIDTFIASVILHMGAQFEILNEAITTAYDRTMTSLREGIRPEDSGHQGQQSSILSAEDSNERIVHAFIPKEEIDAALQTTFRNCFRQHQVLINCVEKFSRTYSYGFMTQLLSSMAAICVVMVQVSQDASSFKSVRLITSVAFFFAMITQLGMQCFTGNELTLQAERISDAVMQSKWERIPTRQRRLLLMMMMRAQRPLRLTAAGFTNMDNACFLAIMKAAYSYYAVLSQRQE
Experiment: Xenopus oocyte two-electrode voltage clamp, HarmOR42 + Orco
Format: cell-based
Conditions: 67 odorants at 10^−4 M
Excerpt: In preliminary screening, we used a high dosage (10^−4 M) of odorants. […] Most functional ORs responded robustly to multiple odorants. The strongest response (up to ∼6,000 nanoampere, nA) we detected was that of HarmOR42 toward the aromatic compound PAA. Further, the response profiles of the 28 HarmORs appeared to be highly differentiated, with no apparent overlap in their tuning spectra (with the exception of HarmOR12 and 36) according to functional cluster analysis (fig. 1A). […]
measured metric: ligand tuning of HarmOR42

O=C/C=C/c1ccccc1    minor ligands
CCCCCCC=O    minor ligands

###

biological target: HarmOR52 (Helicoverpa armigera); experiment: Xenopus oocyte two-electrode voltage clamp, HarmOR52 + Orco; format: cell-based; details: HarmOR52; dose response in oocytes; unit M; read-out: EC50
measured metric: EC50 (µM)
State the answer as a number, implicitly in µM.

Write EC50 of CC1(C)[C@H]2CC=C(CO)[C@@H]1C2 [(1R)-(-)-Myrtenol] ; system used: HarmOR52 (Helicoverpa armigera)
17.1

###

molecular target: HarmOR59 (Helicoverpa armigera); assay: Xenopus oocyte two-electrode voltage clamp, HarmOR59 + Orco; assay type: cell-based
Sequence (A0A7T3KAU6 entry or part of it): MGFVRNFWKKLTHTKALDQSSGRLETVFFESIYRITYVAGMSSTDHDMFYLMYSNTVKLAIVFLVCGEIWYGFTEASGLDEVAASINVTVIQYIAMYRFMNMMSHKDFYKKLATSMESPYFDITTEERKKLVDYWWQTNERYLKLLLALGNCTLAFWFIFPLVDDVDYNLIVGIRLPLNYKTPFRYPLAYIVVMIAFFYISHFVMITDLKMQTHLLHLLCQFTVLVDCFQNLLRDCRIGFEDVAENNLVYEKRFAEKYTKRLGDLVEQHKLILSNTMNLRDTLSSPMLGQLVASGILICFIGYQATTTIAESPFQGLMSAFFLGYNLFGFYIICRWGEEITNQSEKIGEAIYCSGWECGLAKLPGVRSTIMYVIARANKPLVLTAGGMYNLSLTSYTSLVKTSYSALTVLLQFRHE
Items are presented alongside their recorded EC50.
I'd appreciate it if you included the unit after the number.

CC/C=C\CCO [(Z)-3-hexen-1-ol]    1860 µM

Note EC50 for the molecule shown: O=C/C=C/c1ccccc1 [Cinnamaldehyde]
1.72 µM

Annotate the molecule O=Cc1ccccc1 [Benzaldehyde] with its measured EC50.
12 µM

Query EC50 for O=CCc1ccccc1 [Phenylacetaldehyde]
6.97 µM

Could you please provide reported EC50 for CCC/C=C/CO [(E)-2-Hexen-1-ol] ? Thanks!
1190 µM

Specify measured EC50 for CCC/C=C/C=O [(E)-2-Hexen-1-al] .
3780 µM

Attribution: paper PMC8042770
